- target_of_assay: dipeptidyl peptidase 7 (DPP 7) (Homo sapiens, UniProt Q9UHL4)
- assay_info: DPP 7 activity screening
- Type: biochemical
- protocol_conditions: N.I. = No Inhibition
attribute_measured: DPP 7 IC50

Illustrative cases are given below, each with its answer.
molecule="N#Cc1ccccc1Cn1c(N2CCC[C@@H](N)C2)nc2cc(C(Br)Br)sc2c1=O [Compound 98]" value_measured=N.I.
molecule="N#Cc1ccccc1Cn1c(N2CCC[C@@H](N)C2)nc2cc(C(=O)NCCO)sc2c1=O [Compound 123]" value_measured=N.I.
molecule="N#Cc1ccccc1Cn1c(N2CCC[C@@H](N)C2)nc2cc(C(=O)NCc3ccc(C(F)(F)F)cc3)sc2c1=O [Compound 103]" value_measured=N.I.
molecule="N#Cc1ccccc1Cn1c(N2CCC[C@@H](N)C2)nc2cc(C(=O)NCc3ccccc3F)sc2c1=O [Compound 109]" value_measured=N.I.

Problem: Fill in reported DPP 7 IC50 for this entry: CNC(=O)c1cc2nc(N3CCC[C@@H](N)C3)n(Cc3ccccc3C#N)c(=O)c2s1 [Compound 104]
Solution: N.I.

Problem: Kindly indicate its recorded DPP 7 IC50. Item: N#Cc1ccccc1Cn1c(N2CCC[C@@H](N)C2)nc2c(CN3CCOCC3)csc2c1=O [Compound 55]
Solution: N.I.

Problem: Give recorded DPP 7 IC50. N#Cc1ccccc1Cn1c(N2CCC[C@@H](N)C2)nc2c(C(=O)NCCCO)csc2c1=O [Compound 93]
Solution: N.I.

* * *

- assay_info: Safety evaluation: single dose 100 mg/kg by gavage, one week observation
- Type: in vivo, ICR mouse
- protocol_conditions: normal ICR mouse, 100 mg/kg single dose, before administration
attribute_measured: body weight
Express your answer as a number followed by its unit.

Problem: Return the recorded body weight value; entry: COC(=O)c1csc2c(=O)n(Cc3ccccc3C#N)c(N3CCC[C@@H](N)C3)nc12
Solution: 30.8 ± 2.2 g

Problem: Check the records and state body weight for N#Cc1ccccc1Cn1c(N2CCC[C@@H](N)C2)nc2c(CO)csc2c1=O
Solution: 30.2 ± 0.7 g

Problem: Query body weight for N#Cc1ccccc1Cn1c(N2CCC[C@@H](N)C2)nc2cc(C(Br)Br)sc2c1=O
Solution: 30 ± 1.5 g

Problem: Find the measured body weight of COC(=O)c1cc2nc(N3CCCC(N)C3)n(Cc3ccccc3C#N)c(=O)c2s1 (stereo not shown) and report it.
Solution: 29.7 ± 1.8 g

* * *

- assay_info: Safety evaluation: single dose 100 mg/kg by gavage, one week observation
- Assay type: in vivo, ICR mouse
- protocol_conditions: normal ICR mouse, 100 mg/kg single dose, 7th day
Please provide measured Liver index for the entries that follow.
Answer in %, number only, no unit symbol.

Problem: Identify measured Liver index associated with N#Cc1ccccc1Cn1c(N2CCC[C@@H](N)C2)nc2cc(C(Br)Br)sc2c1=O
Solution: 5.0

Problem: State its Liver index for this compound: COC(=O)c1cc2nc(N3CCCC(N)C3)n(Cc3ccccc3C#N)c(=O)c2s1 (stereo not shown)
Solution: 5.3

Problem: Please report Liver index for the following compound: N#Cc1ccccc1Cn1c(N2CCC[C@@H](N)C2)nc2c(CO)csc2c1=O
Solution: 5.3

Problem: Dear colleague, please send me the reported Liver index for COC(=O)c1csc2c(=O)n(Cc3ccccc3C#N)c(N3CCC[C@@H](N)C3)nc12 when you can.
Solution: 5.3

* * *

- assay_info: Safety evaluation: single dose 100 mg/kg by gavage, one week observation
- Format: in vivo, ICR mouse
- protocol_conditions: normal ICR mouse, 100 mg/kg single dose, 7 d after administration
attribute_measured: body weight
Include the unit right after the number.

Problem: Find the measured body weight of COC(=O)c1cc2nc(N3CCCC(N)C3)n(Cc3ccccc3C#N)c(=O)c2s1 (stereo not shown) and report it.
Solution: 30.6 ± 1.9 g

Problem: // Input: N#Cc1ccccc1Cn1c(N2CCC[C@@H](N)C2)nc2c(CO)csc2c1=O . Output its body weight only.
Solution: 32.5 ± 1.3 g

Problem: Tell me its body weight given N#Cc1ccccc1Cn1c(N2CCC[C@@H](N)C2)nc2cc(C(Br)Br)sc2c1=O as the entry.
Solution: 32.1 ± 1.7 g

Problem: Complete the entry with body weight for COC(=O)c1csc2c(=O)n(Cc3ccccc3C#N)c(N3CCC[C@@H](N)C3)nc12
Solution: 33 ± 2.6 g

* * *

attribute_measured: pIC50
By convention, pIC50 is the negative base-10 log of a molar concentration.

Problem: Specify pIC50 for CCOC(=O)CCCNC(=O)c1csc2c(=O)n(Cc3ccccc3C#N)c(N3CCC[C@@H](N)C3)nc12 [Compound 89] , system human DPP 8 (Homo sapiens, UniProt Q6V1X1).
Solution: 4.40

Problem: Look up human DPP 8 (Homo sapiens, UniProt Q6V1X1) data: pIC50 of N#Cc1ccccc1Cn1c(N2CCC[C@@H](N)C2)nc2cc(COCc3ccccc3)sc2c1=O [Compound 94] , then report it.
Solution: 4.47

Problem: # return pIC50 of COC(=O)[C@H](Cc1ccc(O)cc1)NC(=O)c1cc2nc(N3CCC[C@@H](N)C3)n(Cc3ccccc3C#N)c(=O)c2s1 [Compound 101] (system: human DPP 8 (Homo sapiens, UniProt Q6V1X1))
Sequence (Q6V1X1 whole entry): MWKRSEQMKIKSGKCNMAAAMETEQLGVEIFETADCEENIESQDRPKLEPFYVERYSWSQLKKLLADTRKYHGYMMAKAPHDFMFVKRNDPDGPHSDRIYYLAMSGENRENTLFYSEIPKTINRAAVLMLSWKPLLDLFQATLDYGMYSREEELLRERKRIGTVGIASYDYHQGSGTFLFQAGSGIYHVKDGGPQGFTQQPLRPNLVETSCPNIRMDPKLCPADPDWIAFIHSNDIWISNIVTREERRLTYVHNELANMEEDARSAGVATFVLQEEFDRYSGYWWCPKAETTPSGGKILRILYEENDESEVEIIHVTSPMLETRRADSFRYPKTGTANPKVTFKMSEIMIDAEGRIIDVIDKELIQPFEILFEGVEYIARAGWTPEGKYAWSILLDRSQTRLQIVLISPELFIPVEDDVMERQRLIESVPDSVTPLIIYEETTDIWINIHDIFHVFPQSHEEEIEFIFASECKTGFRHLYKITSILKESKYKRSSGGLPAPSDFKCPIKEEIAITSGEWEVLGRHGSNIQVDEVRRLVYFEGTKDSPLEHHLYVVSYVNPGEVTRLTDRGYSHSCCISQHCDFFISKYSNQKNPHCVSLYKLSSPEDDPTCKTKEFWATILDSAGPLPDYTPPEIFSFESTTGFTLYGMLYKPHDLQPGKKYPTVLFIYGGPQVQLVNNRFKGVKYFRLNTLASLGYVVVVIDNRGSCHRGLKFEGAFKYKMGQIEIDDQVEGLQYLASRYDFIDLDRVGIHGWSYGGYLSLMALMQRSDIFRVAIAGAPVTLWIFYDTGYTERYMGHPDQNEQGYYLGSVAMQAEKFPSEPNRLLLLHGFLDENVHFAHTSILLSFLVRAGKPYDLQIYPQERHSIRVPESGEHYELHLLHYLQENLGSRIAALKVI
Solution: 4.87

Problem: Write down measured pIC50 (human DPP 8 (Homo sapiens, UniProt Q6V1X1)) for this compound. N#Cc1ccccc1Cn1c(N2CCC[C@@H](N)C2)nc2cc(C(=O)N3CCCCC3)sc2c1=O [Compound 108]
Solution: 4.82

Problem: State measured pIC50 of the compound CN1CCN(C(=O)c2csc3c(=O)n(Cc4ccccc4C#N)c(N4CCC[C@@H](N)C4)nc23)CC1 [Compound 70] with human DPP 8 (Homo sapiens, UniProt Q6V1X1).
Solution: 4.41

Problem: Provide pIC50, recorded with human DPP 8 (Homo sapiens, UniProt Q6V1X1), of CCOC(=O)CNC(=O)c1csc2c(=O)n(Cc3ccccc3C#N)c(N3CCC[C@@H](N)C3)nc12 [Compound 58]
Solution: 4.84

Problem: Write down measured pIC50 (human DPP 8 (Homo sapiens, UniProt Q6V1X1)) for this compound. N#Cc1ccccc1Cn1c(N2CCC[C@@H](N)C2)nc2cc(C(=O)NCC3CC3)sc2c1=O [Compound 106]
Solution: 4.12

Problem: Find the measured pIC50 of N#Cc1ccccc1Cn1c(N2CCC[C@@H](N)C2)nc2cc(C(=O)N3CCOCC3)sc2c1=O [Compound 118] with human DPP 8 (Homo sapiens, UniProt Q6V1X1) as test system.
Solution: 4.08

Problem: Output reported pIC50 of the compound COC(=O)[C@@H]1CCCN1C(=O)c1csc2c(=O)n(Cc3ccccc3C#N)c(N3CCC[C@@H](N)C3)nc12 [Compound 91] on human DPP 8 (Homo sapiens, UniProt Q6V1X1).
Solution: 4.06

Problem: Write pIC50 of N#Cc1ccccc1Cn1c(N2CCC[C@@H](N)C2)nc2cc(C(=O)N3CCS(=O)(=O)CC3)sc2c1=O [Compound 114] ; system used: human DPP 8 (Homo sapiens, UniProt Q6V1X1)
Solution: 4.25

Problem: Give pIC50; test system human DPP 8 (Homo sapiens, UniProt Q6V1X1); compound CCNC(=O)c1csc2c(=O)n(Cc3ccccc3C#N)c(N3CCC[C@@H](N)C3)nc12 [Compound 71]
Solution: 4.57

Problem: Look up and report pIC50, with human DPP 8 (Homo sapiens, UniProt Q6V1X1) as system, for COCCCNC(=O)c1csc2c(=O)n(Cc3ccccc3C#N)c(N3CCC[C@@H](N)C3)nc12 [Compound 75]
Solution: 4.64

Problem: Find pIC50 for N#Cc1ccccc1Cn1c(N2CCC[C@@H](N)C2)nc2cc(C(=O)NCc3ccccc3Cl)sc2c1=O [Compound 110] on human DPP 8 (Homo sapiens, UniProt Q6V1X1) and write it down.
Solution: 4.09

Problem: Report value only: pIC50, human DPP 8 (Homo sapiens, UniProt Q6V1X1), COC(=O)[C@H](Cc1ccccc1)NC(=O)c1cc2nc(N3CCC[C@@H](N)C3)n(Cc3ccccc3C#N)c(=O)c2s1 [Compound 102]
Solution: 4.56

Problem: Give human DPP 8 (Homo sapiens, UniProt Q6V1X1) pIC50 for the following compound: N#Cc1ccccc1Cn1c(N2CCC[C@@H](N)C2)nc2cc(C(=O)NCc3ccccc3F)sc2c1=O [Compound 109]
Solution: 4.21

Problem: Find the measured pIC50 of CCOC(=O)C1CCN(C(=O)c2cc3nc(N4CCC[C@@H](N)C4)n(Cc4ccccc4C#N)c(=O)c3s2)CC1 [Compound 129] with human DPP 8 (Homo sapiens, UniProt Q6V1X1) as test system.
Solution: 4.79

Problem: Quote pIC50 with test system human DPP 8 (Homo sapiens, UniProt Q6V1X1) for COC(=O)[C@@H](NC(=O)c1csc2c(=O)n(Cc3ccccc3C#N)c(N3CCC[C@@H](N)C3)nc12)C(C)C [Compound 59]
Solution: 4.46

Problem: State pIC50 (human DPP 8 (Homo sapiens, UniProt Q6V1X1)) of CS(=O)(=O)CCNC(=O)c1csc2c(=O)n(Cc3ccccc3C#N)c(N3CCC[C@@H](N)C3)nc12 [Compound 90] .
Solution: 3.99

Problem: Return reported pIC50 for target or system human DPP 8 (Homo sapiens, UniProt Q6V1X1), item COC(=O)[C@H](Cc1ccc(O)cc1)NC(=O)c1csc2c(=O)n(Cc3ccccc3C#N)c(N3CCC[C@@H](N)C3)nc12 [Compound 62] .
Solution: 4.91

Problem: Provide the reported pIC50 (system: human DPP 8 (Homo sapiens, UniProt Q6V1X1)) for N#Cc1ccccc1Cn1c(N2CCC[C@@H](N)C2)nc2c(C(=O)NCC3COC3)csc2c1=O [Compound 82]
Solution: 4.74

Problem: # return pIC50 of N#Cc1ccccc1Cn1c(N2CCC[C@@H](N)C2)nc2c(C(=O)NCc3ccc(C(F)(F)F)cc3)csc2c1=O [Compound 68] (system: human DPP 8 (Homo sapiens, UniProt Q6V1X1))
Solution: 5.09

Problem: State measured pIC50 of the compound COCCNC(=O)c1cc2nc(N3CCC[C@@H](N)C3)n(Cc3ccccc3C#N)c(=O)c2s1 [Compound 111] with human DPP 8 (Homo sapiens, UniProt Q6V1X1).
Solution: 3.95

Problem: Find the measured pIC50 of N#Cc1ccccc1Cn1c(N2CCC[C@@H](N)C2)nc2c(C(=O)N[C@H]3CCOC3=O)csc2c1=O [Compound 92] with human DPP 8 (Homo sapiens, UniProt Q6V1X1) as test system.
Solution: 4.12

Problem: Please indicate recorded pIC50 of COC(=O)[C@H](Cc1ccccc1)NC(=O)c1csc2c(=O)n(Cc3ccccc3C#N)c(N3CCC[C@@H](N)C3)nc12 [Compound 67] measured with human DPP 8 (Homo sapiens, UniProt Q6V1X1).
Solution: 4.60

Problem: # return pIC50 for CC(C)CCNC(=O)c1csc2c(=O)n(Cc3ccccc3C#N)c(N3CCC[C@@H](N)C3)nc12 [Compound 78] , test system: human DPP 8 (Homo sapiens, UniProt Q6V1X1)
Solution: 4.22

Problem: Answer with pIC50 of COC(=O)[C@@H](NC(=O)c1csc2c(=O)n(Cc3ccccc3C#N)c(N3CCC[C@@H](N)C3)nc12)c1ccccc1 [Compound 66] measured for human DPP 8 (Homo sapiens, UniProt Q6V1X1).
Solution: 4.84

Problem: Look up human DPP 8 (Homo sapiens, UniProt Q6V1X1) data: pIC50 of N#Cc1ccccc1Cn1c(N2CCC[C@@H](N)C2)nc2cc(C(=O)NC3CCCCC3)sc2c1=O [Compound 119] , then report it.
Solution: 4.03

Problem: Report pIC50 from human DPP 8 (Homo sapiens, UniProt Q6V1X1) testing of N#Cc1ccccc1Cn1c(N2CCC[C@@H](N)C2)nc2cc(C(=O)NCCO)sc2c1=O [Compound 123]
Solution: 3.65
